- method summary: Solubility estimates by solvent aliquot addition, visual observation
- Format: physicochemical
- condition details: tetrahydrofuran, organic solvent or mixture, thermodynamic from solid, tetrahydrofuran (THF), ambient temperature; read-out: Solubility

{"compound": "Cc1noc(C)c1-c1cnc2c(-c3ccc(C(=O)O)cc3)cn([C@@H](C)c3ccccn3)c2c1 [Compound I Form D]", "solubility (µg/mL)": 4000}

====

- method summary: Solubility estimates by solvent aliquot addition, visual observation
- Type: physicochemical
- condition details: water, thermodynamic from solid, Water; read-out: Solubility

{"molecule": "Cc1noc(C)c1-c1cnc2c(-c3ccc(C(=O)O)cc3)cn([C@@H](C)c3ccccn3)c2c1 [Compound I]", "solubility": "< 1000 µg/mL"}

====

- method summary: Solubility estimates by solvent aliquot addition, visual observation
- Type: physicochemical
- condition details: isopropanol, organic solvent or mixture, thermodynamic from solid, Isopropanol; read-out: Solubility

{"cpd smiles": "Cc1noc(C)c1-c1cnc2c(-c3ccc(C(=O)O)cc3)cn([C@@H](C)c3ccccn3)c2c1", "solubility": "< 1000 µg/mL"}

====

- method summary: Solubility estimates by solvent aliquot addition, visual observation
- Type: physicochemical
- condition details: methanol, organic solvent or mixture, thermodynamic from solid, Methanol; read-out: Solubility

{"compound": "Cc1noc(C)c1-c1cnc2c(-c3ccc(C(=O)O)cc3)cn([C@@H](C)c3ccccn3)c2c1 [Compound I]", "solubility (µg/mL)": 1000}

====

- method summary: Solubility estimates by solvent aliquot addition, visual observation
- Type: physicochemical
- condition details: water, thermodynamic from solid, water, ambient temperature; read-out: Solubility
- Experimental: Aliquots of various solvents were added to measured amounts of Compound I or forms of Compound I as described herein with agitation (typically sonication) at ambient temperature until complete dissolution was achieved, as judged by visual observation. Solubilities were calculated based on the total solvent used to give a solution; actual solubilities may be greater because of the volume of solvent portions utilized or a slow rate of dissolution. […]
observation type: solubility (mg/mL)

{"compound": "Cc1noc(C)c1-c1cnc2c(-c3ccc(C(=O)O)cc3)cn([C@@H](C)c3ccccn3)c2c1 [Compound I Form D]", "value measured": 23}

====

- method summary: Solubility estimates by solvent aliquot addition, visual observation
- Assay type: physicochemical
- condition details: acetonitrile, organic solvent or mixture, thermodynamic from solid, Acetonitrile; read-out: Solubility

{"cpd smiles": "Cc1noc(C)c1-c1cnc2c(-c3ccc(C(=O)O)cc3)cn([C@@H](C)c3ccccn3)c2c1", "solubility": "< 1000 µg/mL"}
